Tested on: SK-OV-3 ovarian
testDetails: NCI-60 one-dose screen, 48 h
testParameters: 10 µM unless noted
Method: Growth inhibition of the SK-OV-3 human tumor cell line is measured as a screen for anti-cancer activity. Cells are grown in 96 well plates and exposed to the test compound for 48 hours. Compounds are tested at a single concentration, which is 10^-5 M for most compounds. The reported endpoint is percent growth (GI% or GIPRCNT), where numbers from 0 - 100% represent growth inhibition, and numbers from -100% - 0 represent cell death. For example, a value of 40 represents 60% growth inhibition. […]
This is part of a sample that, as a whole, favours compounds with a hit. Of some 83,000 tested, about 20% had one in any assay. The source made the active and inactive calls. The calls were made as follows: active = growth percent below 10; inactive = the rest.
Possible outcomes: t = active, f = inactive

[[record]]
molecule = "N#C/C(=C\\c1ccc(-c2ccc(Cl)cc2)o1)C(=O)Nc1ncc(Cc2ccc(Cl)cc2)s1"
class = "f"

[[record]]
molecule = "CCCCCCCCCCCCCCCC(N)c1ccccc1 (stereo not drawn)"
class = "f"

[[record]]
molecule = "Nc1c(C(=O)Nc2ccccc2Cl)sc2nc3c(cc12)C(O)CCC3 (stereo not drawn)"
class = "f"

[[record]]
molecule = "Nc1ncnc2c1N=C(c1ccc(Cl)cc1)CC(c1ccc3c(c1)OCO3)N2 (stereo not drawn)"
class = "f"

[[record]]
molecule = "O=S(=O)(Nc1ccccc1)c1ccc(C2CC3(Cl)C(Cl)=C(Cl)C2(Cl)C3(Cl)Cl)cc1 (stereo not drawn)"
class = "f"

[[record]]
molecule = "Cc1cccc(N2CCN(CC(O)COc3ccc(Cl)cc3)CC2)c1 (stereo not drawn)"
class = "t"

[[record]]
molecule = "N#Cc1cnc(NCCc2ccncc2)nc1-n1cnc2ccccc21"
class = "f"

[[record]]
molecule = "CCOC(=O)C(=Cc1cccc(Cl)c1)C(=O)OCC"
class = "f"

[[record]]
molecule = "c1ccc(C2=NN[C@H](c3cn(-c4ccccc4)nc3-c3ccccc3)C2)cc1"
class = "t"

[[record]]
molecule = "O=C(Cn1c(-c2ccc([N+](=O)[O-])cc2)nc2ccccc21)NNC(=O)c1cccnc1"
class = "f"

[[record]]
molecule = "CC(C)c1ccc(COCc2cc(CN3CCCC3)c(O)c3ncccc23)cc1"
class = "t"

[[record]]
molecule = "C#CCOc1ccc2ncnc(Nc3ccc(NC(=O)CCl)cc3)c2c1"
class = "f"

[[record]]
molecule = "Clc1ccc(Nc2nnc(COc3ccccc3)c3ccccc23)cc1"
class = "t"

[[record]]
molecule = "C=CCn1c(SCC(=O)NCc2cc(C)c(O)c(C)c2)nc2ccc(Cl)cc2c1=O"
class = "f"

[[record]]
molecule = "C#Cc1cccc(Nc2ncnc3ccc(-c4cncc(NS(C)(=O)=O)c4)cc23)c1"
class = "t"

[[record]]
molecule = "CCN(CC)c1nc(SCc2ccccc2Cl)ncc1C"
class = "f"

[[record]]
molecule = "O=C(Nc1nn(-c2ccc(Cl)cc2Cl)nc1-c1ccccc1)c1ccccc1"
class = "f"

[[record]]
molecule = "C=C(C)[C@@H]1CC[C@]2(C(=O)OC)CC[C@]3(C)[C@H](CC[C@@H]4[C@@]5(C)C/C(=C/NC(N)=S)C(=O)C(C)(C)[C@@H]5CC[C@]43C)[C@@H]12"
class = "f"

[[record]]
molecule = "COc1cccc(/C=C/C(=O)c2cc3c(N)c(C(=O)Nc4ccccc4)sc3nc2C)c1"
class = "f"

[[record]]
molecule = "CN1CCN(Cc2ccc3c(NNC(=O)c4ccccc4)nc4cc(F)ccc4n23)CC1"
class = "f"

[[record]]
molecule = "NC(=O)CCC(C(=O)O)N1C(=O)c2ccc(O)cc2C1=O (stereo not drawn)"
class = "t"

[[record]]
molecule = "S=C1CCSC(=S)N1CCCN1C(=S)CCSC1=S"
class = "f"

[[record]]
molecule = "CC(=O)OC[C@]12CCC(C)(C)C[C@H]1[C@@]1(O)[C@H](O)C[C@@H]3[C@@]4(C)CCCNC(C)(C)[C@@H]4CC[C@@]3(C)[C@]1(C)CC2"
class = "f"

[[record]]
molecule = "COc1ccc2cc(-c3ccc(NC(C)=O)c(=O)o3)ccc2c1"
class = "f"

[[record]]
molecule = "O=C(Nc1cc(Cl)ccc1O)c1ccc(Nc2ccnc(C(F)(F)F)c2)cc1"
class = "f"

[[record]]
molecule = "CNC(=O)c1cc(Oc2ccc3c(c2)sc2nc(-c4cc(OC)c(OC)c(OC)c4)cn23)ccn1"
class = "f"

[[record]]
molecule = "N=C(N)c1ccc(-c2ccc(-c3ccc(Cl)cc3)s2)nc1"
class = "f"

[[record]]
molecule = "N#CC1=C(c2ccc(Cl)cc2)Nc2c(c(-c3ccc(Cl)cc3)nn2-c2ccccc2)C12C(=O)Nc1ccc(Cl)cc12 (stereo not drawn)"
class = "f"

[[record]]
molecule = "COc1ccc(CC(C#N)c2cc3ccccc3[nH]2)cc1 (stereo not drawn)"
class = "f"

[[record]]
molecule = "O=C1NCCC12CCN(c1c(Cl)cncc1-c1ccc(O)cc1)CC2"
class = "f"

[[record]]
molecule = "Cc1ccc(CNc2ccc(Cl)cc2NCc2ccc(C)c(O)c2)cc1O"
class = "f"

[[record]]
molecule = "CC(C)NC1CCC(Nc2ccnc3cc(Cl)ccc23)CC1 (stereo not drawn)"
class = "f"

[[record]]
molecule = "O=C(NCc1ccccc1)Nc1ccccc1CNc1nc(Nc2ccc(OCCN3CCCC3)cc2)ncc1Cl"
class = "f"

[[record]]
molecule = "CCOC(=O)C1=NN(c2ccccc2)C(=O)/C1=C\\N1C(=O)CC(=O)NC1=S"
class = "f"

[[record]]
molecule = "Cn1cc(-c2csc(-c3ccc(Cl)cc3)n2)c2cccnc21"
class = "t"

[[record]]
molecule = "C=C(CNCCc1ccc(O)cc1)[C@@H]1CC[C@]2(CO)CC[C@]3(C)[C@H](CC[C@@H]4[C@@]5(C)CCC(NCCO)C(C)(C)[C@@H]5CC[C@]43C)[C@@H]12 (stereo partly drawn)"
class = "f"

[[record]]
molecule = "CCn1c(SCC(=O)c2ccc(Br)cc2)nnc1-c1ccncc1"
class = "f"

[[record]]
molecule = "Cc1ccc(Sc2oc(-c3ccc(C)cc3)nc2[P+](c2ccccc2)(c2ccccc2)c2ccccc2)cc1"
class = "t"


---

System: OVCAR-4 ovarian
testDetails: NCI-60 one-dose screen, 48 h
testParameters: 10 µM unless noted
About 83,000 compounds went through this panel and 20% of them were active in at least one assay; those are over-represented in the sample as a whole. Active and inactive are the calls of the source. How the source made its calls: active means growth percent below 10; inactive means the rest.
Labels: True for active, False for inactive

[[record]]
compound = "Cc1ccc(C2=Nc3c(N)ncnc3NC(c3ccc4c(c3)OCO4)C2)cc1 (centres undefined)"
class = "False"

[[record]]
compound = "Brc1ccc(-n2cc(-c3nn[nH]n3)c(-c3cccs3)n2)cc1"
class = "False"

[[record]]
compound = "Cc1oc(-c2ccc(Cl)cc2)nc1/C=C/C(=O)c1ccccc1"
class = "False"

[[record]]
compound = "O=S(=O)(NCCNc1cc(-c2c(-c3cccc(O)c3)nc3sccn23)ccn1)c1ccc(C(F)(F)F)cc1"
class = "False"

[[record]]
compound = "COC(=O)c1n[nH]c2ccc3nc(-c4cn[nH]c4C(F)(F)F)c4c(c3c12)CCCC4"
class = "False"

[[record]]
compound = "Cc1cc(=O)[nH]c2c(C#N)cnn12"
class = "False"

[[record]]
compound = "N#Cc1nn(-c2cc(=O)[nH]c3ccc(Cl)cc23)c(N)c1C#N"
class = "False"

[[record]]
compound = "CCCNC(=O)Oc1ccc(/C(=C(/C)Cc2ccc(OC)cc2)c2ccc(OCCCN(C)C)cc2)cc1"
class = "False"

[[record]]
compound = "O=C1c2cccnc2C(=O)c2c1c(C(=O)NCCCN1CCCCC1)c1ccccn21"
class = "True"


---

Tested on: HCT-15 colon
testDetails: NCI-60 one-dose screen, 48 h
testParameters: 10 µM unless noted
About 83,000 compounds went through this panel and 20% of them were active in at least one assay; those are over-represented in the sample as a whole. Active and inactive are the calls of the source. How the source made its calls: active means growth percent below 10; inactive means the rest.
Possible outcomes: Y = active, N = inactive

[[record]]
compound = "N#CCSc1nnc2n(Cc3ccccc3)c(=O)c3c4c(sc3n12)CCCC4"
targetorsystem = "HCT-15 colon"
class = "N"

[[record]]
compound = "N#Cc1cccc(NC(=O)c2oc3ccccc3c2-c2cnn(-c3ccccc3)c2)c1"
targetorsystem = "HCT-15 colon"
class = "N"

[[record]]
compound = "CC1(C)c2[nH]c3ccccc3c2C[C@]2(C)[C@H]3CC=C4[C@@H]5C[C@@](C)(C(N)=O)CC[C@]5(C)CC[C@@]4(C)[C@]3(C)CC[C@@H]12"
targetorsystem = "HCT-15 colon"
class = "N"

[[record]]
compound = "CC(=O)N1N=C(c2ccc(Nc3nc(Nc4ccc(Cl)cc4)nc(Nc4ccc(Cl)cc4)n3)cc2)CC1c1ccco1 (stereo not given)"
targetorsystem = "HCT-15 colon"
class = "N"

[[record]]
compound = "CO[C@]12C=C/C(=C(/C(=O)OCc3cccnc3)C(=O)CCCCCCCC[C@@]3(OC)C=C/C(=C(/C(=O)OCc4cccnc4)C(=O)CCCCCCCC1)O3)O2"
targetorsystem = "HCT-15 colon"
class = "Y"

[[record]]
compound = "O=C(O)c1[nH]c(=O)[nH]c(=O)c1[N+](=O)[O-]"
targetorsystem = "HCT-15 colon"
class = "N"

[[record]]
compound = "CC1(C)CC2=C3C=C[C@@H]4[C@@]5(C)CCC(=O)C(C)(C)[C@@H]5CC[C@@]4(C)[C@]3(C)CC[C@@]2(C(=O)O)CC1=O"
targetorsystem = "HCT-15 colon"
class = "N"

[[record]]
compound = "CCN(C(=O)N1CCN(c2cc3c(cc2F)c(=O)c(C(=O)O)cn3C2CC2)CC1)c1nc(-c2ccc(Cl)cc2)cs1"
targetorsystem = "HCT-15 colon"
class = "N"

[[record]]
compound = "C=C(C)[C@@H]1CC[C@]2(C(=O)O)CC[C@]3(C)[C@H](CC[C@@H]4[C@@]5(C)C[C@@H](Cc6cn(CCO[C@@H]7O[C@H](COC(C)=O)[C@H](OC(C)=O)[C@H](OC(C)=O)[C@H]7OC(C)=O)nn6)[C@H](O)C(C)(C)[C@@H]5CC[C@]43C)[C@@H]12"
targetorsystem = "HCT-15 colon"
class = "N"

[[record]]
compound = "COc1cc(-c2cc(-c3ccc(N(C)C)cc3)nc(N3CCC(O)CC3)c2C#N)cc(OC)c1OC"
targetorsystem = "HCT-15 colon"
class = "Y"

[[record]]
compound = "Oc1c(Cl)cc(Cl)c2ccc(Cn3cc(-c4cc(C(F)(F)F)cc(C(F)(F)F)c4)nn3)nc12"
targetorsystem = "HCT-15 colon"
class = "N"

[[record]]
compound = "N#Cc1nc(-c2ccccc2)oc1S(=O)(=O)N1CCOCC1"
targetorsystem = "HCT-15 colon"
class = "Y"

[[record]]
compound = "O=C1N[C@@H]2NC(=[N+]3CCOCC3)N[C@@H]2N1"
targetorsystem = "HCT-15 colon"
class = "N"

[[record]]
compound = "O=C1c2cccc3cccc(c23)C(=O)N1N1C(=O)c2cccc3c(N4CCOCC4)ccc(c23)C1=O"
targetorsystem = "HCT-15 colon"
class = "N"

[[record]]
compound = "COC(=O)/C(CCC=C(C)C)=C1\\[C@@H](OC(C)=O)C[C@@]2(C)[C@H]1C[C@@H](O)[C@H]1[C@@]3(C)CC[C@H](NCCN)[C@@H](C)[C@@H]3CC[C@@]12C"
targetorsystem = "HCT-15 colon"
class = "N"

[[record]]
compound = "CN1C(=O)N(C)C2Nn3c(s/c(=C\\c4ccc(C(F)(F)F)cc4)c3=O)=NC21 (stereo not given)"
targetorsystem = "HCT-15 colon"
class = "N"

[[record]]
compound = "O=C1c2c(c3c4ccc(Br)cc4oc3c3[nH]c4ccccc4c23)C(=O)N1O"
targetorsystem = "HCT-15 colon"
class = "N"

[[record]]
compound = "N#Cc1cccc(-c2c(-c3ccc4ccccc4c3)oc3ccccc3c2=O)c1"
targetorsystem = "HCT-15 colon"
class = "N"

[[record]]
compound = "C=C(C)[C@@H]1CC[C@]2(C(=O)OC)CC[C@]3(C)[C@H](CC[C@@H]4[C@@]5(C)C/C(=C/NC(N)=S)C(=O)C(C)(C)[C@@H]5CC[C@]43C)[C@@H]12"
targetorsystem = "HCT-15 colon"
class = "N"

[[record]]
compound = "Cn1c(=O)c2[nH]c(N/N=C/c3ccccc3Br)nc2n(C)c1=O"
targetorsystem = "HCT-15 colon"
class = "N"

[[record]]
compound = "COC(=O)c1c2c(c[n+]([O-])c1C)C(=O)C(NCc1ccccc1)=CC2=O"
targetorsystem = "HCT-15 colon"
class = "Y"

[[record]]
compound = "O=C(c1ccccc1)C1C(=O)N2C(=S)N(c3ccccc3)C(=O)C2C1c1ccc(Cl)cc1 (stereo not given)"
targetorsystem = "HCT-15 colon"
class = "N"

[[record]]
compound = "CCCCCCCCCCCCCCCC(N)c1ccccc1 (stereo not given)"
targetorsystem = "HCT-15 colon"
class = "Y"

[[record]]
compound = "N#Cc1c(-c2cccs2)cc(-c2cccnc2)[nH]c1=O"
targetorsystem = "HCT-15 colon"
class = "N"

[[record]]
compound = "CC(C)c1ccc(COCc2cc(CN3CCCC3)c(O)c3ncccc23)cc1"
targetorsystem = "HCT-15 colon"
class = "Y"

[[record]]
compound = "Cc1cccnc1NC(=S)Nc1ncccc1C"
targetorsystem = "HCT-15 colon"
class = "N"

[[record]]
compound = "O=C(Nc1ccc(NC(=O)c2cc(=O)[nH]c3ccccc23)cc1)Nc1cccc(C(F)(F)F)c1"
targetorsystem = "HCT-15 colon"
class = "N"

[[record]]
compound = "COc1ccc(C2c3sc4c(F)cccc4c3Oc3nc[nH]c(=O)c32)cc1 (stereo not given)"
targetorsystem = "HCT-15 colon"
class = "N"

[[record]]
compound = "COc1cc2c(c(OC)c1OC)C(=O)CC(c1cccc(NC(=O)c3ccc(Br)cc3)c1)O2 (stereo not given)"
targetorsystem = "HCT-15 colon"
class = "N"

[[record]]
compound = "COc1cc(C(=O)n2nc(N3CCN(C)CC3)c3cc(N)ccc32)cc(OC)c1OC"
targetorsystem = "HCT-15 colon"
class = "N"

